B1: ATE1 (parent)
chain: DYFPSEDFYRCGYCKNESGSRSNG

variants of: B1; test: protein stability index of a GFP-peptide fusion (GPS, HEK-293T) (PSI 1-6); higher = more stable; conditions: c terminus: a fixed tail appended;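 further: lentivirally expressed fusions sorted by FACS into six bins by GFP to DsRed ratio, PSI derived from sequencing read proportions per bin multiplied by bin number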
Output TRUE for protein stability index not less than 2; output FALSE otherwise.

Given `DYFPSEDFYRCGYNKNESGSRSNG` , state whether its protein stability index is at least 2.
TRUE

Given `DYFPSEDFYRCGYCANESGSRSNG` , state whether its protein stability index is at least 2.
FALSE

Given `DYFPSEDFYRCGYCKNESGRRSNG` , state whether its protein stability index is at least 2.
TRUE

Given `DYFPSEDFARCGYCKNESGSRSNG` , state whether its protein stability index is at least 2.
TRUE

Given `FYFPSEDFYRCGYCKNESGSRSNG` , state whether its protein stability index is at least 2.
FALSE

Given `DYFPSEDFYKCGYCKNESGSRSNG` , state whether its protein stability index is at least 2.
TRUE

Given `DYPPSEDFYRCGYCKNESGSRSNG` , state whether its protein stability index is at least 2.
TRUE

Given `DYFPSEDFYRCGYCKNESGSRSVG` , state whether its protein stability index is at least 2.
FALSE

Given `DYFPSEDFYRCGYCVNESGSRSNG` , state whether its protein stability index is at least 2.
TRUE

Given `DYFPSEDFYRCGYCKNESGSRSLG` , state whether its protein stability index is at least 2.
TRUE

Given `DYFPSADFYRCGYCKNESGSRSNG` , state whether its protein stability index is at least 2.
FALSE

Given `DYFPSEDFYRCGYCKNESQSRSNG` , state whether its protein stability index is at least 2.
TRUE

Given `DYFPSEDFYRCGYCKNESGSRANG` , state whether its protein stability index is at least 2.
FALSE
